- studyTarget: T1, full-length human Tau (Tau441; 2N4R), recombinant (human, UniProt P10636 1-758)
- T1 construct: made in E. coli, His6-Smt3 tag removed; biotinylated through amines for Octet and phage work; also called r-Tau; recombinant Tau
- T1 sequence (P10636 other isoform, or with tags, fused parts or gaps limits assumed): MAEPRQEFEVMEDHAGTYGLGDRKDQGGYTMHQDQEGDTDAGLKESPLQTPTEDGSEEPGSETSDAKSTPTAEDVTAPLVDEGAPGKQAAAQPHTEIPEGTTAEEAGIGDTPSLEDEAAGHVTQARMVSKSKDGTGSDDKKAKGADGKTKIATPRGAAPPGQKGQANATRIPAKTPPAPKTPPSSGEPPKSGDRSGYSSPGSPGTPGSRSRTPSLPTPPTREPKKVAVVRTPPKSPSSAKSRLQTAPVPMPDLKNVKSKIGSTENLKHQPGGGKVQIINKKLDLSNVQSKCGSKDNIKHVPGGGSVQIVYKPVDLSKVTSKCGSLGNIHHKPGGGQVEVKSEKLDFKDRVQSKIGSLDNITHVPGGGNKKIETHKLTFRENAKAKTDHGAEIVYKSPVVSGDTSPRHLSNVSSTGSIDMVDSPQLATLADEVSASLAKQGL
- assayMethodText: SPR Biacore
Binary label based on koff with cut-off 0.0001 s⁻¹: below gives True, not below gives False.

Take a look at these entries with their results.
{"binder": "Clone with H1_1 (antibody, V domains shown) VH: EVQLLESGGGLVQPGGSLRLSCAASGFKFSRVGVSWVRQAPGKGLEWVASISGDGGSYIHYADSVKGRFTISRDNSKNTLYLQMNSLRAEDTAVYYCARLPYWGQGTLVTVSS VL: DIVMTQSPDSLAVSLGERATINCKSSQSLLNSGNQKNYLTWYQQKPGQPPKLLIYWASTRESGVPDRFSGSGSGTDFTLTISSLQAEDVAVYYCQQYNSYPLTFGQGTKVEIKR", "class": "False"}
{"binder": "Clone with L1_3 and H1_4 (antibody, V domains shown, IgG based on hu1C7.v2) VH: EVQLLESGGGLVQPGGSLRLSCAASGFRFSGPGMSWVRQAPGKGLEWVASISGDGGSYIHYADSVKGRFTISRDNSKNTLYLQMNSLRAEDTAVYYCARLPYWGQGTLVTVSS VL: DIVMTQSPDSLAVSLGERATINCKSSQSLHRSGTQKDYLVWYQQKPGQPPKLLIYWASTRESGVPDRFSGSGSGTDFTLTISSLQAEDVAVYYCQQYNSYPLTFGQGTKVEIK", "class": "True"}
{"binder": "Clone with H1_2 (antibody, V domains shown, IgG based on hu1C7.v2) VH: EVQLLESGGGLVQPGGSLRLSCAASGFTFSRVGTSWVRQAPGKGLEWVASISGDGGSYIHYADSVKGRFTISRDNSKNTLYLQMNSLRAEDTAVYYCARLPYWGQGTLVTVSS VL: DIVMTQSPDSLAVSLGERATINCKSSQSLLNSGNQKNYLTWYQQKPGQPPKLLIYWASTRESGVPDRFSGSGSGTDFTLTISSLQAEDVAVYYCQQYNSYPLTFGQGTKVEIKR", "class": "False"}
{"binder": "Clone with L1_3 and H1_1 (antibody, V domains shown, IgG based on hu1C7.v2) VH: EVQLLESGGGLVQPGGSLRLSCAASGFKFSRVGVSWVRQAPGKGLEWVASISGDGGSYIHYADSVKGRFTISRDNSKNTLYLQMNSLRAEDTAVYYCARLPYWGQGTLVTVSS VL: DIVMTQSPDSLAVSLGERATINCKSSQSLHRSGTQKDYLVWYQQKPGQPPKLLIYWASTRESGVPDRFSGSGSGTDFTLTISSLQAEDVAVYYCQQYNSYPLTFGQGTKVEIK", "class": "False"}

Proceed to the following item.
Q. Field: below-cutoff. Rule: recorded koff strictly less than 0.0001 s⁻¹. Subject: Clone with H1_4 (antibody, V domains shown, IgG based on hu1C7.v2) VH: EVQLLESGGGLVQPGGSLRLSCAASGFRFSGPGMSWVRQAPGKGLEWVASISGDGGSYIHYADSVKGRFTISRDNSKNTLYLQMNSLRAEDTAVYYCARLPYWGQGTLVTVSS VL: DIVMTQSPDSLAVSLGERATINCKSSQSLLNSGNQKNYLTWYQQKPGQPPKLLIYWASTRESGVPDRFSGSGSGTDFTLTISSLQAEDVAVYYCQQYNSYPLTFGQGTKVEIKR
A. False
